# ASSAY DETAILS: Dasatinib single oral gavage plasma pharmacokinetics (NLME modeling)
# Type: in vivo, mouse
# STATED CONDITIONS: male, C57BL/6, mouse, plasma, oral, 10 mg/kg, GROUP:VD3 Def, SEX:M, OCC 2, time 1; read-out: DV (dasatinib plasma concentration)
MEASUREMENT TYPE: concentration at 1 h

Any idea what its concentration at 1 h is? The compound is `Cc1nc(Nc2ncc(C(=O)Nc3c(C)cccc3Cl)s2)cc(N2CCN(CCO)CC2)n1`
> 500 ng/mL

----------
# ASSAY DETAILS: Dasatinib single oral gavage plasma pharmacokinetics (NLME modeling)
# Assay type: in vivo, mouse
# STATED CONDITIONS: male, C57BL/6, mouse, plasma, oral, 10 mg/kg, GROUP:VD3 Suf, SEX:M, OCC 2, time 0.25; read-out: DV (dasatinib plasma concentration)
# Protocol: Dasatinib was dissolved in 80 mMol/L sodium citrate buffer pH 3.1 for a total dasatinib concentration of 1 mg/mL and a 10 mL/kg gavage volume. Mice were grouped by VD3 status and sex and studied at 8 and 10 weeks of age. […] Total plasma dasatinib concentrations were assessed using a sensitive and specific liquid chromatography, tandem mass spectrometry (LC-MS/MS) assay. […]
MEASUREMENT TYPE: concentration at […] (ng/mL)
// units = ng/mL; emit number, no label

Any idea what its concentration at […] is? The molecule is `Cc1nc(Nc2ncc(C(=O)Nc3c(C)cccc3Cl)s2)cc(N2CCN(CCO)CC2)n1`
107

----------
# ASSAY DETAILS: Dasatinib single oral gavage plasma pharmacokinetics (NLME modeling)
# Type: in vivo, mouse
# STATED CONDITIONS: male, C57BL/6, mouse, plasma, oral, 10 mg/kg, GROUP:VD3 Def, SEX:M, OCC 1, time 4; read-out: DV (dasatinib plasma concentration)
MEASUREMENT TYPE: concentration at 4 h

Any idea what its concentration at 4 h is? The molecule is `Cc1nc(Nc2ncc(C(=O)Nc3c(C)cccc3Cl)s2)cc(N2CCN(CCO)CC2)n1`
87.8 ng/mL

----------
# ASSAY DETAILS: Dasatinib single oral gavage plasma pharmacokinetics (NLME modeling)
# Assay type: in vivo, mouse
# STATED CONDITIONS: female, C57BL/6, mouse, plasma, oral, 10 mg/kg, GROUP:VD3 Suf, SEX:F, OCC 1, time 8; read-out: DV (dasatinib plasma concentration)
# Protocol: Dasatinib was dissolved in 80 mMol/L sodium citrate buffer pH 3.1 for a total dasatinib concentration of 1 mg/mL and a 10 mL/kg gavage volume. Mice were grouped by VD3 status and sex and studied at 8 and 10 weeks of age. […] Total plasma dasatinib concentrations were assessed using a sensitive and specific liquid chromatography, tandem mass spectrometry (LC-MS/MS) assay. […]
MEASUREMENT TYPE: concentration at 8 h (ng/mL)
// units = ng/mL; emit number, no label

Any idea what its concentration at 8 h is? The molecule is `Cc1nc(Nc2ncc(C(=O)Nc3c(C)cccc3Cl)s2)cc(N2CCN(CCO)CC2)n1`
22

----------
# ASSAY DETAILS: Repeated discontinuous oral DEX PK study (another 60 mice)
# Format: in vivo, mouse
# STATED CONDITIONS: male, C57BL/6, mouse, plasma, oral, 8 mg/L, DEX conc, Average ± S.D. of quantifiable samples, plasma; repeated study; VD3 Deficient, M; Day 17.5; n=5
MEASUREMENT TYPE: concentration at 17.5 day

Any idea what its concentration at 17.5 day is? The compound is `C[C@@H]1C[C@H]2[C@@H]3CCC4=CC(=O)C=C[C@]4(C)[C@@]3(F)[C@@H](O)C[C@]2(C)[C@@]1(O)C(=O)CO`
16.7 nM
